Please respond with reported GI50 for every item in the list.
test system: SF-268; assay: NCI tumour cell line growth inhibition, 48 h
Calls of active or inactive are those of the source. Rule as the data show it: active = GI50 up to about 1.1 µM and inactive = higher.

Inquiry: // lookup GI50 for CN(C)CCn1c(=O)nc2c3c(c([N+](=O)[O-])ccc31)Nc1ccc(O)cc1-2
Reply text: 1.95 µM (inactive)

Inquiry: Input CC(=O)OCC1OC(OCCCCCCO)C(OC(C)=O)C(OC(C)=O)C1OC(C)=O (stereo not given)
Reply text: > 100 µM (inactive)

Inquiry: Input COc1cc2c(cc1OC)C(=O)N(c1ccc(OCCN3CCCC3)cc1)C2
Reply text: > 100 µM (inactive)

Inquiry: Input c1ccc(SC2CCSc3ccccc3C2Sc2ccccc2)cc1 (stereo not given)
Reply text: > 100 µM (inactive)

Inquiry: Input Cc1c(C)c(C)c(-n2c(=O)n(C)c(=O)n2C(C)(C)C)c(C)c1C
Reply text: > 100 µM (inactive)

----------
tested on: RPMI-8226; experiment: NCI tumour cell line growth inhibition, 48 h
Activity calls are given as the source filed them. No stated cut-off is given here; in the data, active = GI50 up to about 1.1 µM and inactive = higher.
Please respond with reported GI50 for every item in the list.

Inquiry: // lookup GI50 for COc1cc(OCc2ccc3nc(OC)c(OC)nc3c2)cc(OC)c1OC
Reply text: > 10 µM (inactive)

Inquiry: Input Cc1cn(C(Cc2ccccc2)OCCO)c(=O)[nH]c1=O (stereo not given)
Reply text: > 100 µM (inactive)

Inquiry: Input CCCC(=O)Nc1cc(C(=O)N2C[C@@H]3C[C@]34C2=CC(=O)c2[nH]cc(C)c24)n(COC)c1
Reply text: 12.2 µM (inactive)

Inquiry: Input O=C(O)CCC(=O)C(=O)O [ALPHA-KETOGLUTARIC ACID]
Reply text: > 100 µM (inactive)

Inquiry: Input COC(=O)/C=C(\C(=O)OC)c1c2c3c(cc(OC)c(OC)c3c3ccccc13)CCN2C
Reply text: 26.8 µM (inactive)

----------
tested on: MDA-MB-435; test: NCI tumour cell line growth inhibition, 48 h
Activity calls are given as the source filed them. Cut-off read from the data, not from the text of the source: active = GI50 up to about 1.1 µM and inactive = higher.
Metric Name: GI50

Inquiry: // lookup GI50 for COP(=O)(OC)/C(=C/c1cn(C(c2ccccc2)(c2ccccc2)c2ccccc2)cn1)NC=O
Reply text: 18.1 µM (inactive)

Inquiry: Input Nc1nnc(-c2ccco2)c(-c2ccco2)n1
Reply text: > 100 µM (inactive)

Inquiry: Input NCCc1c[nH]c2ccc(OC(=O)C(=O)O)cc12
Reply text: > 100 µM (inactive)

Inquiry: Input CCN(CC)CCn1ncc2c(N)ncnc21
Reply text: > 100 µM (inactive)

----------
test system: OVCAR-3; assay: NCI tumour cell line growth inhibition, 48 h
Activity calls are given as the source filed them. No stated cut-off is given here; in the data, active = GI50 up to about 1.1 µM and inactive = higher. Where a SMILES comes first, the peptide text is derived from it. [ ]: non-standard residue; d: D form. 2Nal = N[CH](Cc1ccc2ccccc2c1)C(=O)O
A correct response names exactly one class from active, inactive

Inquiry: For CC(NC(=O)C(N)Cc1ccccc1)C(=O)NC(Cc1ccc(O)cc1)C(=O)NC(Cc1c[nH]c2ccccc12)C(=O)NC(CCCCN)C(=O)NC(C(=O)NC(C)C(=O)NC(Cc1ccc2ccccc2c1)C(N)=O)C(C)C (stereo not drawn) (H-FAYWKVA[2Nal]-NH2; configuration not given here) , what call appears in the results of this test?
Reply text: inactive

Inquiry: Input CC1=CC(C)(C)[C@H]2O[C@@]3(O)C[C@]4(C)[C@H]5C[C@@](C(C)C)(O[C@H]4c4ccoc4)O[C@H]4[C@]5(C3)O[C@@]1(O)[C@]24O
Reply text: inactive

Inquiry: Input CCCCCCCCOCC(CO)OCCCCCCCC (stereo not drawn)
Reply text: inactive

Inquiry: Input CC1C(c2ccc3c(c2)OCO3)c2cc3c(cc2OC1N1CCOCC1)OCO3 (stereo not drawn)
Reply text: inactive

Inquiry: Input CCOC(=O)c1ccc(N(CCOS(=O)(=O)c2ccc(C)cc2)CCOS(=O)(=O)c2ccc(C)cc2)cc1
Reply text: inactive

Inquiry: Input Cc1ccc(-c2cc(-c3ccco3)c(C#N)c(=S)[nH]2)cc1
Reply text: inactive

Inquiry: Input C=CC[P@]1(=O)O[C@H](c2ccccc2)C(C)N1C(C)C (stereo partly drawn)
Reply text: inactive

Inquiry: Input N=C(N)NCCCC(NC(=O)c1cccc2c(=O)c3ccccc3[nH]c12)C(=O)O (stereo not drawn)
Reply text: inactive

Inquiry: Input CC(NNC(=O)c1ccc[n+]([BH2-]C#N)c1)c1ccccc1 (stereo not drawn)
Reply text: inactive

Inquiry: Input N#Cc1c2c(c(N3CCOCC3)n3c1nc1ccccc13)CCCC2
Reply text: inactive

Inquiry: Input CN(C)c1ccc(C(=NNC(=O)c2cc3ccccc3[nH]2)c2ccc(N(C)C)cc2)cc1
Reply text: active

Inquiry: Input CC1CC(=O)C(C(O)CC2CC(=O)N(c3ccccc3)C(=O)C2)C(C)C1 (stereo not drawn)
Reply text: inactive

Inquiry: Input Nc1cccc(Nc2nc3ccccc3nc2NS(=O)(=O)c2ccccc2)c1
Reply text: inactive

Inquiry: Input CCOC(=O)NNC(=O)C1CSC(c2ccccc2)N1C(C)=O (stereo not drawn)
Reply text: inactive

Inquiry: Input Clc1cc(-c2ccccc2)nc2ccccc12
Reply text: inactive

Inquiry: Input Cc1cc(N2CCOCC2)nc2ccc(Cc3ccc4nc(N5CCOCC5)cc(C)c4c3)cc12
Reply text: inactive

Inquiry: Input COc1cc(C2C(C(=O)Nc3ccc(Cl)c(Cl)c3)=C(C)NC(C)=C2C(=O)Nc2ccc(Cl)c(Cl)c2)ccc1O
Reply text: inactive

Inquiry: Input COC(=O)/C=C(\C(=O)OC)c1c2c3c(cc(OC)c(OC)c3c3ccccc13)CCN2C
Reply text: inactive

----------
tested on: SR; assay: NCI tumour cell line growth inhibition, 48 h
Active and inactive are the calls of the source. No stated cut-off is given here; in the data, active = GI50 up to about 1.1 µM and inactive = higher.
Please respond with reported GI50 for every item in the list.

Inquiry: // lookup GI50 for CN(C)C(=O)C1CCN(Cc2c[nH]c3ccccc23)CC1
Reply text: > 100 µM (inactive)

Inquiry: Input O=[N+]([O-])c1ccc(N2CCC(CCCC3CCN(c4ccc([N+](=O)[O-])cc4[N+](=O)[O-])CC3)CC2)c([N+](=O)[O-])c1
Reply text: 27 µM (inactive)

Inquiry: Input CCCCN(CC)C(=O)C(=O)Cc1nc2ccc(C(=O)c3ccccc3)cc2nc1O
Reply text: 21.6 µM (inactive)

Inquiry: Input CC1C(c2ccc3c(c2)OCO3)c2cc3c(cc2OC1N1CCOCC1)OCO3 (centres undefined)
Reply text: 10.6 µM (inactive)

Inquiry: Input COc1ccc(C(=O)N/N=C2\C(=O)c3c(C)cc(C)cc3CC2(C)C)cc1
Reply text: 18.5 µM (inactive)

Inquiry: Input Cc1cc(Cl)ccc1NC(=O)C(=O)Cc1ccc([N+](=O)[O-])c([N+](=O)[O-])c1CC(=O)C(=O)Nc1ccc(Cl)cc1C
Reply text: 42.1 µM (inactive)

Inquiry: Input COC(=O)/C=C(\C(=O)OC)c1c2c3c(cc(OC)c(OC)c3c3ccccc13)CCN2C
Reply text: 26.1 µM (inactive)

Inquiry: Input CC(CCCC1SCC2NC(=O)NC21)C(=O)O (centres undefined)
Reply text: > 100 µM (inactive)

Inquiry: Input O=C(CCc1nnc(S)[nH]1)Nc1ccc(Cl)c(Cl)c1
Reply text: 51.2 µM (inactive)

Inquiry: Input CCOC(OC1=C(C#N)CCCC1)C(CC)[Se]c1ccccc1 (centres undefined)
Reply text: 7.8 µM (inactive)

Inquiry: Input CC(/C=C/C(=O)c1sc(C(N)=S)nc1C)=C\c1ccccc1
Reply text: 31.9 µM (inactive)

Inquiry: Input O=C(CC(C(=O)c1cccs1)c1ccc2c(c1)OCO2)c1ccc(Br)cc1 (centres undefined)
Reply text: > 100 µM (inactive)

Inquiry: Input OCCN=C1c2ccccc2C2C(c3ccccc31)C1c3ccccc3C(=NCCO)c3ccccc3C21 (centres undefined)
Reply text: 9.48 µM (inactive)

Inquiry: Input CSc1cc(Cl)c(C)cc1S(=O)(=O)NC(=O)NNc1ccc(F)c(Cl)c1
Reply text: 61 µM (inactive)

----------
tested on: NCI/ADR-RES; experiment: NCI tumour cell line growth inhibition, 48 h
Active and inactive are the calls of the source. Cut-off read from the data, not from the text of the source: active = GI50 up to about 1.1 µM and inactive = higher.
Metric Name: GI50

Inquiry: // lookup GI50 for Cn1c(-c2ccc(/N=N/Nc3ccc(-c4n[nH]c(=S)n4C)cc3)cc2)n[nH]c1=S
Reply text: > 100 µM (inactive)

Inquiry: Input Nc1nnc(-c2ccco2)c(-c2ccco2)n1
Reply text: > 100 µM (inactive)

Inquiry: Input CC(C)CCCC(C)[C@H]1CCC2[C@@H]3CCC4Cc5nc6c(nc5C[C@]4(C)C3CC[C@@]21C)CC1CC[C@@H]2C(CC[C@@]3(C)C2CC[C@@H]3O)[C@@]1(C)C6 (stereo not given in full)
Reply text: > 100 µM (inactive)

Inquiry: Input c1ccc2nn(C3CCCCO3)nc2c1 (stereo not given)
Reply text: > 100 µM (inactive)

Inquiry: Input COc1ccc(N2C(=O)C(=O)N(c3ccc(/N=N\c4ccccc4)cc3)C2=S)cc1
Reply text: 18.9 µM (inactive)

Inquiry: Input C[C@@H](NC(=O)c1ccc(CNC(=O)/C=C/c2cccc(Oc3ccccc3)c2)cc1)c1ccccc1
Reply text: > 100 µM (inactive)

Inquiry: Input CCC(=O)Nc1ccc(NCC(=O)Nc2ccc(Cl)cc2)cc1
Reply text: 33.2 µM (inactive)

Inquiry: Input [O-]/[N+](=N\c1ccccc1CO)c1ccccc1CO
Reply text: > 100 µM (inactive)

Inquiry: Input O=C1CCc2ccc(O)c(c2)Oc2ccc(cc2)C(Sc2ccccc2)CCO1 (stereo not given)
Reply text: 14.1 µM (inactive)

Inquiry: Input O=C(OCC(OC(=O)c1ccccc1)C1CC(C(O)C2CCCCC2)C(=O)O1)c1ccccc1 (stereo not given)
Reply text: 23.2 µM (inactive)
